measured.target: P-gp (ABCB1) (Homo sapiens, UniProt P08183)
Construct: expressed in transfected cells; host or cells: NIH/3T3
Sequence (P08183 whole entry): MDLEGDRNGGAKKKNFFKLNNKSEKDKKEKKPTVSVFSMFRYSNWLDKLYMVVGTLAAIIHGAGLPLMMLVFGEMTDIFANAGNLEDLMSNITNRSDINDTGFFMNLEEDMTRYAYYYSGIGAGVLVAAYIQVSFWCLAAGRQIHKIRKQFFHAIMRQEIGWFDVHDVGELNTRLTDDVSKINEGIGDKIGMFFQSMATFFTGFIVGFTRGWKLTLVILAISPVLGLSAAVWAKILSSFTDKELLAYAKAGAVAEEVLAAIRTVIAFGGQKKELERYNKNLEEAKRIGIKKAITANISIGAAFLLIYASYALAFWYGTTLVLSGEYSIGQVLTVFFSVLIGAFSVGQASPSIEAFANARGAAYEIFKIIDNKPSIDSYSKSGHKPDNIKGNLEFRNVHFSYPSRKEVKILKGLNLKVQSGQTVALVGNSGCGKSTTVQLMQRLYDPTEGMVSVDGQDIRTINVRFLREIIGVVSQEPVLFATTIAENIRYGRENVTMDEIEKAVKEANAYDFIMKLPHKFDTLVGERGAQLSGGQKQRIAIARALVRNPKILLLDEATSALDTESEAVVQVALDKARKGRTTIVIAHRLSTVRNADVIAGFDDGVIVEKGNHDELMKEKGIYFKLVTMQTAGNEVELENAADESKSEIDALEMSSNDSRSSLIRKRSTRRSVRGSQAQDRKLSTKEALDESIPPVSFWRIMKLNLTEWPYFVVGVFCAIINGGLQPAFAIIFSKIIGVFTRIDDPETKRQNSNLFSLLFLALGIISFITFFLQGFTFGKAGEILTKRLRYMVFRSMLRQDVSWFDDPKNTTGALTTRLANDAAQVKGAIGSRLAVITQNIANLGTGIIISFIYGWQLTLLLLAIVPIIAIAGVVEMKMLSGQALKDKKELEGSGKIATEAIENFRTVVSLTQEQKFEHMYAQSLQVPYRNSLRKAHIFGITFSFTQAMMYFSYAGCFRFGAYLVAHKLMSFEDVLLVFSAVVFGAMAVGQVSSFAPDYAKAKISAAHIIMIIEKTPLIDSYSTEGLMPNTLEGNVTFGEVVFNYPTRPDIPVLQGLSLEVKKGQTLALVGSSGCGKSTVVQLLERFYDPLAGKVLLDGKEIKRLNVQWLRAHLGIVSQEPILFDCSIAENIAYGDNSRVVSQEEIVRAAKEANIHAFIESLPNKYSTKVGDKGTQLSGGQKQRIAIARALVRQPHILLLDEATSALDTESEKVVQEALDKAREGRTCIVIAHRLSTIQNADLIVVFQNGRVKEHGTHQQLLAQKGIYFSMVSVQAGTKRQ
assay.remarks: P-gp-mediated rhodamine 123 efflux inhibition (selectivity assay), ABCB1-transfected NIH/3T3 cells
Type: cell-based
settings: probe rhodamine 123 (R123); [Inhibitor] 1 μM; 0.5 μM R123
Method: The tests were performed in triplicate.
outcome.measure: inhibition at 30 min, 1 μM (%)

>  <compound>
CC[C@@H](C)[C@H](NC(=O)c1cc(=O)c2c(OCc3ccc(Br)cc3)cccc2o1)C(=O)N[C@H](C(=O)OC)C(C)C [7c (series 2)]

>  <inhibition at 30 min, 1 μM / %>
2.4

$$$$

a = COC(=O)[C@H](Cc1c[nH]c2ccccc12)NC(=O)c1cc(=O)c2c(OCc3ccc(Br)cc3)cccc2o1 [5h (series 1)]
b = CC[C@@H](C)[C@H](NC(=O)c1cc(=O)c2c(OCc3ccccc3Br)cccc2o1)C(=O)N[C@H](C(=O)OC)C(C)C [7a (series 2)]
c = CC[C@@H](C)[C@H](NC(=O)c1cc(=O)c2c(OCc3ccccc3Br)cccc2o1)C(=O)N[C@@H](CC(C)C)C(=O)OC [7b (series 2)]
d = CC[C@@H](C)[C@H](NC(=O)c1cc(=O)c2c(OCc3ccc(Br)cc3)cccc2o1)C(=O)N[C@@H](CC(C)C)C(=O)OC [7d (series 2)]
Q. Parameters: sort_field (inhibition at 30 min, 1 μM), sort_dir (desc). Put the labels in the requested order and list them out.
A. a, d, c, b
(a: 7.4%, d: 3.6%, c: 1.7%, b: 0.1%)

Origin of values: patent US20220267289A1
